subject of test: T1, recombinant IL-17RA-Fc (UniProt Q96F46 33-320)
T1 construct: Bought reagent; also called R & D systems cat #177-IR-100; receptor; not shown: Fc part of the bought fusion, not described
method summary: specificity ELISA on coated antigen, VH concentration not given

{"binder": "Clone 1.15 (VHH, Human single VH domain) VHH: EVQLVESGGGLVQPGGSLRLSCAASGFTFSSYSMYWVRQAPGKGLEWVAEIRQDGSEQYYVDSVKGRFTISRDNAKNSLYLQMNSLRAEDTAVYYCAKGEILPLYFDYWGQGTLVTVSS", "binding result": "no binding"}
{"binder": "VH 1.19.1 (clone 1.19 expressed from phagemid vector: with linker residues and His tag) (VHH, Human single VH domain) VHH: EVQLVESGGGLVQPGGSLRLSCATSGFTFSSYGMYWVRQAPGKGLEWVAEIKQDGSEKYYVDSVKGRFTISRDNAKNSLYLQMNSLRAEDTAVYYCAKGEILPLYFDYWGQGTLVTVSS", "binding result": "no binding"}
{"binder": "VH 1.20.1 (clone 1.20 expressed from phagemid vector: with linker residues and His tag) (VHH, Human single VH domain) VHH: EVQLVESGGGLVQPGGSLRLSCAASGFTFSSYGMYWVRQAPGKGLEWVAKIEQDGSEEYYADSVKGRFTISRDNAKKSLYLQMNSLRAEDTAVYYCAKGEILPLYFDYWGQGTLVTVSS", "binding result": "no binding"}
{"binder": "VH 1.16.1 (clone 1.16 expressed from phagemid vector: with linker residues and His tag) (VHH, Human single VH domain) VHH: EVQLVESGGGLVQPGGSLRLSCAASGFTFSSYSMYWVRQAPGKGLEWVAEIKQDGSEQYYVDSVKGRFTISRDNAKNSLYLQMNGLRAEDTAVYYCAKGEILPLYFDYWGQGTLVTVSS", "binding result": "no binding"}
